tested on: Mus musculus; assay: Neurotoxicity in Swiss albino Mus musculus (mouse) assessed as minimal motor impairment at 300 mg/kg, ip after 4 hr by rotorod test; type: toxicity, organism-based; set-up: dose 300 mg/kg, route intraperitoneal; settings: in vivo
MEASURED_ATTRIBUTE: Activity

MOLECULE	MEASURED_ATTRIBUTE	OBSERVED
Cc1nc2c(Br)cc(Br)cc2c(=O)n1-c1ccc(C(=O)N2N=C(c3ccccc3)CC2c2ccc(Cl)cc2)cc1 (stereo not given)	Activity	Non-toxic
COc1ccc(C2CC(c3ccccc3)=NN2C(=O)c2ccc(-n3c(C)nc4ccccc4c3=O)cc2)cc1 (stereo not given)	Activity	Toxic
CCC1(C)CC(=O)NC1=O (stereo not given) [ETHOSUXIMIDE]	Activity	Non-toxic
COc1ccc(C2CC(c3ccccc3)=NN2C(=O)c2ccc(-n3c(C)nc4c(Br)cc(Br)cc4c3=O)cc2)cc1 (stereo not given)	Activity	Toxic
Cc1nc2ccccc2c(=O)n1-c1ccc(C(=O)N2N=C(c3ccccc3)CC2c2ccc(N(C)C)cc2)cc1 (stereo not given)	Activity	Non-toxic
